FYI, the data here is from PubChem BioAssay (NCI).

- System: MOLT-4 leukemia
- assay-protocol: NCI tumour cell line growth inhibition, 48 h
assay-endpoint: TGI (µM)
Unit µM implied. Number only.

Use these answered entries as a reference point.
# molecule, TGI / µM
measured = [
    ("C=C=C[P+](c1ccccc1)(c1ccccc1)c1ccccc1", 16.2),
    ("O=C(O)C(Cc1cc(I)c(O)c(I)c1)C1CCCCC1 (stereo unspecified)", 76.2),
    ("O=P1(NCCCl)OCCCN1CCCl (stereo unspecified)", 391),
]

In plain terms, CSC(=S)CC(O)[C@@H]1CC2c3ccccc3C1c1ccccc12 (stereo partly specified) has a documented TGI of 8.24

In plain terms, C/C(=C\C(=O)O[C@H]1[C@@H]2[C@H](C)CC[C@H]2[C@]2(C)O[C@@]1(C1CCCCC1)C[C@H]2OC(=O)CO)c1ccccc1 has a documented TGI of 13.6
